- measuredTarget: Gal(b1-4)GlcNAc(b1-3)GalNAc
- assaySummary: glycan array binding signal (z-score within array); higher = stronger binding
- measurementSetup: glycan notation: IUPAC condensed, linker removed
The sample as a whole holds a higher share of the strongest signals than the screen did.
Where glycan array binding signal (z-score) equals or exceeds -0.3, the correct label is y; where it does not, the label is n.

CV-2L (Chromobacterium violaceum), Q7NX84 (protein) MAQQGVFTLPARINFGVTVLVNSAATQHVEIFVDNEPRAAFSGVGTGDNNLGTKVINSGSGNVRVQITANGRQSDLVSSQLVLANKLNLAVVGSEDGTDMDYNDSIVILNWPLG: n

Exam item: decide whether the reported glycan array binding signal (z-score) for PNGase F (Flavobacterium meningosepticum) (protein) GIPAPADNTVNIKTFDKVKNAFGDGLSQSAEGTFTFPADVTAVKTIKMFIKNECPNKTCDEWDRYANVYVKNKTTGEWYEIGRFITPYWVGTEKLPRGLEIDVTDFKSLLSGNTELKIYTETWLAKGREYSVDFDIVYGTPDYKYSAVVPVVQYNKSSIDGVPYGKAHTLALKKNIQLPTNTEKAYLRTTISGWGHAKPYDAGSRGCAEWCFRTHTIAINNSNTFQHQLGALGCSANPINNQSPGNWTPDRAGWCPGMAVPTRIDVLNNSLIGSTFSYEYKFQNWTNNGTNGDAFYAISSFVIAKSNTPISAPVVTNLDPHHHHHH is at least -0.3.
Marked response: y

Exam item: Again, but for Pwp2 (Candida glabrata) (protein) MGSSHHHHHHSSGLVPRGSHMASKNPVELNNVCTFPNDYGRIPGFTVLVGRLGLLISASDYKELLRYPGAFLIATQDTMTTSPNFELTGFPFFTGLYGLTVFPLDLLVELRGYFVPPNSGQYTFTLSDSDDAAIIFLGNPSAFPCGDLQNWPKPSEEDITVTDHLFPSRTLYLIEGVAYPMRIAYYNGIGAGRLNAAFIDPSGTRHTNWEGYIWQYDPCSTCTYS
Marked response: n

Exam item: Param item: CBM40 CPF071 (Clostridium perfringens) (protein) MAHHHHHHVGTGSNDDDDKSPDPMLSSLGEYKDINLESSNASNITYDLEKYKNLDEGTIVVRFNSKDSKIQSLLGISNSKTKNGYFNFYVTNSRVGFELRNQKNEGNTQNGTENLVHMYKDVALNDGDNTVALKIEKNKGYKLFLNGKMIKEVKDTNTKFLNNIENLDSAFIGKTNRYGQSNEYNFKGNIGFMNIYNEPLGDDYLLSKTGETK
Marked response: n

Exam item: Also, CBM32-5 (Clostridium perfringens) (protein) MGSSHHHHHHSSGLVPRGSHMASALPQGNMKATATSEHPDVGNEGLAKFAIDGKENTIWHTKYNPVEELPQSITLELGGSYEINKFTYLPRSGAKNGNITKYELHVSEDGNNFRKISEGNWDDSGSLKTLKFNSTKATHVKLVALEGVGGFASAAELNVFA please.
Marked response: y

Exam item: Next binder up: Epa22 (Candida glabrata) (protein) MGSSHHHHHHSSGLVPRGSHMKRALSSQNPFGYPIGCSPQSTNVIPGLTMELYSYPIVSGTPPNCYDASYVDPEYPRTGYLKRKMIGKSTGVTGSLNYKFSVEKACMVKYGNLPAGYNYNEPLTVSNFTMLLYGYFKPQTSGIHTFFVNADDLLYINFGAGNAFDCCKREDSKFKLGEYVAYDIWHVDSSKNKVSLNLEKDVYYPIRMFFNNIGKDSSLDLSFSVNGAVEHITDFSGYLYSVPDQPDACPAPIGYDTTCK
Marked response: y
